# experimentalSystem: Human IP6K1 (Homo sapiens, UniProt Q92551)
# Construct: GST (N, cleaved yes); made in house; host or cells: C43 E. coli, pGEX-6P-2
# Sequence (Q92551 whole entry): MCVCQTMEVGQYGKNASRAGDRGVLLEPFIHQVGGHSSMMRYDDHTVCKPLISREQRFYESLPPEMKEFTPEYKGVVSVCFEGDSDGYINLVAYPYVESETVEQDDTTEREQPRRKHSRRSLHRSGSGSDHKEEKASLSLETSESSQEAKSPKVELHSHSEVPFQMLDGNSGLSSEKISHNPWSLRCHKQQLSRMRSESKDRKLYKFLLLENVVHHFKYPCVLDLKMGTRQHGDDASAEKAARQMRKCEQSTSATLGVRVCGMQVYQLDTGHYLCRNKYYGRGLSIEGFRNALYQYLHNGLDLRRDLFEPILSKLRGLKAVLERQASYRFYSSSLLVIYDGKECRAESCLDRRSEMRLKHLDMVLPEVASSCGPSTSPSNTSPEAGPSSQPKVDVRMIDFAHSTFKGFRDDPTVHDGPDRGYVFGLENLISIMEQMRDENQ
# protocol: IP6K1 high-throughput screen of the Sigma LOPAC (ADP-Glo Max, single point);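 note: final compound concentration 10µM in 5% DMSO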
# Type: biochemical
# recordedConditions: LOPAC single-point screen; Z-score relative to plate average and StDev
Where a name gives a salt, the structure may show the parent alone.
Class 1: Z-score at least -0.6. Class 0: Z-score below -0.6.

Look over these answered cases.
Cl.Oc1cc2c(cc1O)C(c1ccccc1)CNCC2 (racemic) [(±)-SKF-38393 hydrochloride] :: 0
C[C@]12CCC(=O)C(O)=C1CC[C@@H]1[C@@H]2CC[C@]2(C)C(=O)CC[C@@H]12 :: 0
COc1ccc2c(c1O)-c1cccc3c1[C@@H](C2)N(C)CC3.Cl [R(-)-Apocodeine hydrochloride] :: 0
Br.CN1CCc2cc(O)cc3c2[C@H]1Cc1ccc(O)c(O)c1-3 :: 0

(Q) Say whether C[N+]1(C)[C@@H]2CC[C@H]1C[C@@H](OC(=O)C(CO)c1ccccc1)C2 (stereo partly shown) [Atropine methyl bromide] shows Z-score of -0.6 or more.
(A) 0

(Q) Say whether Br.Cc1cccc(C2CN(C)CCc3c2cc(O)c(O)c3Cl)c1 (stereo not shown) [SKF 83959 hydrobromide] shows Z-score of -0.6 or more.
(A) 0

(Q) Say whether Cl.NCC#Cc1ccccc1 [3-Phenylpropargylamine hydrochloride] shows Z-score of -0.6 or more.
(A) 1

(Q) Say whether CN(C)C(=O)C(CCN1CCC(O)(c2ccc(Cl)cc2)CC1)(c1ccccc1)c1ccccc1 [Loperamide hydrochloride] shows Z-score of -0.6 or more.
(A) 1

(Q) Say whether Cc1nc(N=Nc2cc(S(=O)(=O)[O-])c3cc([N+](=O)[O-])cc(S(=O)(=O)[O-])c3c2)c(COP(=O)([O-])[O-])c(C=O)c1O.[Na+].[Na+].[Na+].[Na+] [PPNDS tetrasodium] shows Z-score of -0.6 or more.
(A) 0

(Q) Say whether NCCCNCCSP(=O)(O)O shows Z-score of -0.6 or more.
(A) 1

(Q) Say whether CC(C)=CCC/C(C)=C/CC/C(C)=C/CSc1ccccc1C(=O)O shows Z-score of -0.6 or more.
(A) 0

(Q) Say whether CC1=C(/C=C/C(C)=C/C=C/C(C)=C/C(=O)O)C(C)(C)CCC1 shows Z-score of -0.6 or more.
(A) 0

(Q) Say whether COc1ccc(NC(=O)c2ccc(-c3ccc(-c4noc(C)n4)cc3C)cc2)cc1N1CCN(C)CC1.Cl [GR 127935 hydrochloride] shows Z-score of -0.6 or more.
(A) 1

(Q) Say whether O=C(O)c1cccnc1C(=O)O shows Z-score of -0.6 or more.
(A) 0

(Q) Say whether CN1CC[C@]2(CCN3CCc4c(oc5ccccc45)[C@@H]3C2)N(C)C1=O.Cl shows Z-score of -0.6 or more.
(A) 1

(Q) Say whether Br.CCCN1CCc2cc(O)cc3c2[C@H]1Cc1ccc(O)c(O)c1-3 shows Z-score of -0.6 or more.
(A) 0

(Q) Say whether CN(C)CCOC(C)(c1ccccc1)c1ccccn1 (stereo not shown) [Doxylamine succinate] shows Z-score of -0.6 or more.
(A) 0

(Q) Say whether CC(C)NC[C@@H](O)COc1ccc(CC(N)=O)cc1 [R(+)-Atenolol] shows Z-score of -0.6 or more.
(A) 0

(Q) Say whether C[n+]1cc2c3c(ccc2c2ccc4cc5c(cc4c21)OCO5)OCO3 [Sanguinarine chloride] shows Z-score of -0.6 or more.
(A) 0

(Q) Say whether CCCNC[C@H](O)COc1ccccc1C(=O)CCc1ccccc1.Cl [(S)-(-)-propafenone hydrochloride] shows Z-score of -0.6 or more.
(A) 0

(Q) Say whether COc1cc2c(CCNC(C)=O)c[nH]c2cc1O [6-Hydroxymelatonin] shows Z-score of -0.6 or more.
(A) 0

(Q) Say whether COc1c2c(nc3ccccc13)OC(C(C)(O)CO)C2 (stereo not shown) shows Z-score of -0.6 or more.
(A) 1

---

# experimentalSystem: Human IP6K1 (Homo sapiens, UniProt Q92551)
# Construct: GST (N, cleaved yes); made in house; host or cells: C43 E. coli, pGEX-6P-2
# protocol: IP6K1 high-throughput screen of the Sigma LOPAC (ADP-Glo Max, single point);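 note: final compound concentration 10µM in 5% DMSO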
# Assay type: biochemical
# recordedConditions: Sigma LOPAC single-point screen; Z-score from plate average and StDev
Structures can show the parent of a compound that is named as a salt.
parameterMeasured: Z-score
A bare number is all that is needed in reply.

Reference set, count: 4
CN(C)CCC=C1c2ccccc2COc2ccccc21 [Doxepin hydrochloride] :: 0.726
COCCc1ccc(OCC(O)CNC(C)C)cc1.O=C(O)C(O)C(O)C(=O)O (racemic) [(±)-Metoprolol (+)-tartrate] :: 1.158
NCCc1c[nH]c2ccc(O)cc12 [Serotonin hydrochloride] :: 1.048
Cc1ccc(Cl)c(Nc2ccccc2C(=O)O)c1Cl [Meclofenamic acid sodium] :: 0.9363

Query O=Nc1ccc2oc(=O)ccc2c1 on Human IP6K1 (Homo sapiens, UniProt Q92551); Z-score returned: 0.5326

Query CC[N+](CC)(CC)CCOc1ccc(/C=C/c2ccccc2)cc1 on Human IP6K1 (Homo sapiens, UniProt Q92551); Z-score returned: 0.4984

Query CCCCS(=N)(=O)CC[C@H](N)C(=O)O (stereo partly shown) on Human IP6K1 (Homo sapiens, UniProt Q92551); Z-score returned: 0.5937

Query CS(=O)(=O)O.Cn1cc(C(F)(F)F)nc1-c1ccc(OCC(O)CNCCOc2ccc(O)c(C(N)=O)c2)cc1 (stereo not shown) [CGP 20712A methanesulfonate] on Human IP6K1 (Homo sapiens, UniProt Q92551); Z-score returned: 0.3985

Query CC[C@@H](CO)NC(=O)[C@@H]1C=C2c3cccc4[nH]cc(c34)C[C@H]2N(C)C1 [Methylergonovine maleate] on Human IP6K1 (Homo sapiens, UniProt Q92551); Z-score returned: 0.3813

Query CCCN(CCC)C(=O)Cc1c(-c2ccc(Cl)cc2)nc2c(Cl)cc(Cl)cn12 on Human IP6K1 (Homo sapiens, UniProt Q92551); Z-score returned: 0.4123

Query CCCC(C)(COC(N)=O)COC(=O)NC(C)C (stereo not shown) on Human IP6K1 (Homo sapiens, UniProt Q92551); Z-score returned: 0.5634

---

# experimentalSystem: Human IP6K1 (Homo sapiens, UniProt Q92551)
# Construct: GST (N, cleaved yes); made in house; host or cells: C43 E. coli, pGEX-6P-2
# protocol: IP6K1 high-throughput screen of the Sigma LOPAC (ADP-Glo Max, single point);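 note: final compound concentration 10µM in 5% DMSO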
# Type: biochemical
# recordedConditions: Sigma LOPAC single-point screen, ADP-Glo Max raw signal per well
Structures can show the parent of a compound that is named as a salt.
parameterMeasured: Raw Signal
A bare number is all that is needed in reply.

Reference set, count: 8
Cc1cnc(C(=O)NCCc2ccc(S(=O)(=O)NC(=O)NC3CCCCC3)cc2)cn1 [Glipizide] :: 60018
Cl.Cl.Fc1ccc(C(OCCN2CCN(CCCc3ccccc3)CC2)c2ccc(F)cc2)cc1 [GBR-12909 dihydrochloride] :: 60047
CNCC[C@@H](Oc1ccccc1C)c1ccccc1 :: 58582
C[C@@]12N[C@@H](Cc3ccccc31)c1ccccc12.O=C(O)/C=C\C(=O)O [(-)-MK-801 hydrogen maleate] :: 58481
CC(=O)O[C@H]1C[C@@H]2CC[C@@H]3[C@H](CC[C@@]4(C)[C@H]3C[C@H]([N+]3(C)CCCCC3)[C@@H]4OC(C)=O)[C@@]2(C)C[C@@H]1[N+]1(C)CCCCC1 [Pancuronium bromide] :: 59072
CN1CCN(C2Cc3ccccc3Sc3ccc(Cl)cc32)CC1.O=C(O)/C=C\C(=O)O (racemic) [(±)-Octoclothepin maleate] :: 60782
OC[C@H]1O[C@@H](n2cnc3c(NC4CCCCC4)ncnc32)[C@H](O)[C@@H]1O :: 60438
CCN(CC)CCNC(=O)c1cc(S(C)(=O)=O)ccc1OC [Tiapride hydrochloride] :: 58277

Reported Raw Signal ( CC(O)C(C)OC(=O)[C@@H]1C[C@@H]2c3cccc4c3c(cn4C(C)C)C[C@H]2N(C)C1.O=C(O)/C=C\C(=O)O (stereo partly shown) [LY-53,857 maleate] ) = 58270

Reported Raw Signal ( Cl.Cl.Cl.Ic1ccc(N2CCN(Cc3c[nH]c4ncccc34)CC2)cc1 [L-750,667 trihydrochloride] ) = 61468

Reported Raw Signal ( CCCC(C)(COC(N)=O)COC(=O)NC(C)C (stereo not shown) ) = 61112

---

# experimentalSystem: Human IP6K1 (Homo sapiens)
# Construct: GST (N, cleaved yes); made in house; host or cells: C43 E. coli, pGEX-6P-2
# protocol: IP6K1 high-throughput screen of the Sigma LOPAC (ADP-Glo Max, single point);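 note: final compound concentration 10µM in 5% DMSO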
# Type: biochemical
# recordedConditions: LOPAC single-point screen, ADP-Glo Max luminescence raw signal per well
Where a name gives a salt, the structure may show the parent alone.
parameterMeasured: Raw Signal

Reference set, count: 6
CNC(=O)[C@H]1O[C@@H](n2cnc3c(NCc4cccc(I)c4)nc(Cl)nc32)[C@H](O)[C@@H]1O :: 50053
O=C(O)c1cccnc1C(=O)O :: 51489
Oc1ccccc1O :: 49319
CCN1CCC[C@H]1CNC(=O)c1c(OC)ccc(I)c1O [S(-)-IBZM] :: 51122
O=c1[nH]c2cc(Cl)ccc2c(O)c1-c1cccc(Oc2ccccc2)c1 :: 49431
Cc1c2ccncc2c(C)c2c1[nH]c1ccccc12 :: 50782

Reported Raw Signal ( CNCCCN1c2ccccc2CCc2ccccc21 [Desipramine hydrochloride] ) = 49945

Reported Raw Signal ( O=c1cc(-c2ccc(O)c(O)c2)oc2cc(O)cc(O)c12 ) = 50800

Reported Raw Signal ( CCCCCCC(C(C)O)n1cnc2c(N)ncnc21.Cl (stereo not shown) ) = 51235

Reported Raw Signal ( O=C(NCC1CCCCN1)c1cc(OCC(F)(F)F)ccc1OCC(F)(F)F (stereo not shown) [Flecainide acetate] ) = 50763

Hey, just so you know, these numbers are from paper PMC5706701.
